- Assayed Target: c-Src SH2
- Procedure Summary: SH2 binding enrichment of the phosphorylated peptide, bacterial display (enrichment ratio); higher = better substrate or ligand; peptides without Tyr show the background
Measurement Name: SH2 binding enrichment
// return just the number, without any unit appended

Some solved cases for reference:
> print(dat)
                          seq.text        measurement.name  obs.value
1   AFGEVYEGQES [ALK_Y1131_V1135E]  SH2 binding enrichment      0.557
2    GVTLLCYGRYN [ADGRD1_Y85_Y85C]  SH2 binding enrichment      0.486
3  IKKLIYVFLVI [JAGN1_Y42_H44Y_YF]  SH2 binding enrichment       1.22

Lab note: FGIAQYCCRMG [LRRK2_Y2023_YF] gave SH2 binding enrichment of 0.936

Lab note: SSAKTYSRMRL [NBEAL2_Y1835_E1833K] gave SH2 binding enrichment of 0.773

Lab note: EQAERYDDMAA [YWHAG_Y20] gave SH2 binding enrichment of 1.3

Lab note: HRNGMYGLHQD [SGSH_Y89_Q85R] gave SH2 binding enrichment of 0.631

Lab note: KKFPDYIQIAM [SGMS2_Y59_YF] gave SH2 binding enrichment of 0.76

Lab note: KKFVPYYDLFM [IPO5_Y530_E525K] gave SH2 binding enrichment of 2.43

====

- Assayed Target: Hck (UniProt P08631)
- Sequence (P08631 whole entry, looked up): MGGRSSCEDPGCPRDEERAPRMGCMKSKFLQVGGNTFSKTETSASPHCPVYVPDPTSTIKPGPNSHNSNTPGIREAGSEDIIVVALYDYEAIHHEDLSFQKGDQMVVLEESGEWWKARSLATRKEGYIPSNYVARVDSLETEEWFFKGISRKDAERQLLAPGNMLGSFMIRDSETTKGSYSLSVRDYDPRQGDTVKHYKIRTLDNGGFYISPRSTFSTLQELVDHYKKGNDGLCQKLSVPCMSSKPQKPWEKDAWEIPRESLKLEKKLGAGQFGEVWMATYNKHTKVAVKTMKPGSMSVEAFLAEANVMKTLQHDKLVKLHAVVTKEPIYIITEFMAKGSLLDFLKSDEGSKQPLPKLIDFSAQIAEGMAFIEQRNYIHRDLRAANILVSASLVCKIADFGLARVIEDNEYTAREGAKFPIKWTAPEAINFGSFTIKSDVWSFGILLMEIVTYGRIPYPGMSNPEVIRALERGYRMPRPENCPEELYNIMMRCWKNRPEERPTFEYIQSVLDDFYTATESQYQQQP
- Procedure Summary: phosphorylation enrichment, bacterial display (enrichment ratio); higher = better substrate or ligand; peptides without Tyr show the background
Measurement Name: phosphorylation enrichment
// return just the number, without any unit appended

> print(dat)
                           seq.text  obs.value
1  EAEPYYCSLRD [NPHS1_Y1139_R1140C]       2.94

Lab note: ILGRFYERGSI [PAX5_Y73_T75R_YF] gave phosphorylation enrichment of 0.486

Lab note: FSPGSNERETF [NF1_Y2192_Y2192N] gave phosphorylation enrichment of 0.484

Lab note: IEELTYVIKQD [STX5_Y137_I138V] gave phosphorylation enrichment of 0.528

Lab note: NLMPAYYKCIQ [CYP21A2_Y190] gave phosphorylation enrichment of 0.507

Lab note: VDHFGYNKDDK [APOB_Y740_T741N] gave phosphorylation enrichment of 0.436

Lab note: PVQAVYQKVVA [HBB_Y131_A130V] gave phosphorylation enrichment of 1.75

Lab note: RDGDRYFKGIV [DCX_Y64_N60D] gave phosphorylation enrichment of 0.437

Lab note: ETKRPYTVILI [SBDS_Y128] gave phosphorylation enrichment of 0.481

Lab note: GIVEDYRPRFY [ACVRL1_Y421_P424R] gave phosphorylation enrichment of 0.537

Lab note: TNYRLYLRSLE [MTM1_Y71] gave phosphorylation enrichment of 0.555

Lab note: EYRFIYMAVQH [PTPN11_Y515_Q510E] gave phosphorylation enrichment of 4.57

====

- Assayed Target: SHP2-C SH2
- Procedure Summary: SH2 binding enrichment of the phosphorylated peptide, bacterial display (enrichment ratio); higher = better substrate or ligand; peptides without Tyr show the background
Rule: SH2 binding enrichment under 0.6 gives f, otherwise t.

Some solved entries appear below for comparison.
> print(dat)
                         seq.text  category.label
1       RQEEEYKRLSE [SFSWAP_Y133]               f
2    PGVDIYVSPNM [PADI3_Y51_I52V]               f
3  KDHPDYKYQLR [SOX10_Y171_P175L]               t
4   KVVVPYEPPEV [TP53_Y220_S215K]               f
5        NDHHVYLEGTL [ALDOB_Y223]               t

Moving on to the next sequence.
**Q:** Identify whether the reported SH2 binding enrichment of the following sequence is 0.6 or greater: LERFIYNPEEF [HLA-DPB1_Y59_R61P_YF]
**A:** t

====

- System: c-Abl (mouse)
- Procedure Summary: phosphorylation enrichment, bacterial display (enrichment ratio); higher = better substrate or ligand; peptides without Tyr show the background
Property: phosphorylation enrichment; scope: individual sequences

Some solved cases for reference:
> print(dat)
                        seq.text  obs.value
1  SVVVPDEPPEV [TP53_Y220_Y220D]      0.782
2      PQDVTYAQLHS [LILRB4_Y412]      0.815

// next item, phosphorylation enrichment requested
Lab note: GCKNRYDKGKP [THAP1_Y14_D17G] gave phosphorylation enrichment of 0.798

====

- Assayed Target: Fyn (UniProt P06241)
- Sequence (P06241 whole entry, looked up): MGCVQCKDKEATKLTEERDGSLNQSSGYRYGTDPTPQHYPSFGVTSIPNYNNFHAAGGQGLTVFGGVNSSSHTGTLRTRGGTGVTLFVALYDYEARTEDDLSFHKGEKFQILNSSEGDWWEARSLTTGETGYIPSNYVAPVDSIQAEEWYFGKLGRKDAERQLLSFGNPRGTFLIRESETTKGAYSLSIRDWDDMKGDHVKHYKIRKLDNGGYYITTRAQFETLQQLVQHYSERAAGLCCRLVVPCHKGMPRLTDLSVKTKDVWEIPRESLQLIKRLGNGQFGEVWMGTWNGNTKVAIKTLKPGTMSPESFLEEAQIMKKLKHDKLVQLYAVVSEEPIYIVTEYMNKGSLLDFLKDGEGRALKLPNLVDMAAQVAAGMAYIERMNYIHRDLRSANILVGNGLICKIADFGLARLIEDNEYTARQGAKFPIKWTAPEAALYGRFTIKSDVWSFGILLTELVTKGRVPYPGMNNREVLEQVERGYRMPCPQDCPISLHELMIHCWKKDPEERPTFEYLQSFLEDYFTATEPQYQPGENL
- Procedure Summary: phosphorylation enrichment, bacterial display (enrichment ratio); higher = better substrate or ligand; peptides without Tyr show the background
Rule: phosphorylation enrichment under 0.5 gives f, otherwise t.

Some solved entries appear below for comparison.
> print(dat)
                               seq.text        assayed.target  category.label
 1         GYQPEYGQPAG [SYP_Y278_D277E]  Fyn (UniProt P06241)               f
 2             RTIPDYTSFNT [EPHB2_Y912]  Fyn (UniProt P06241)               t
 3  EEEFEYMNRRR [ERBB3_Y1199_D1194E_YF]  Fyn (UniProt P06241)               t
 4      TWSRSYRSDRL [CRYBB1_Y131_S129R]  Fyn (UniProt P06241)               f
 5       QNKEDYDGLKE [GSTO1_Y139_A140D]  Fyn (UniProt P06241)               t
 6        SVVVPYKPPEV [TP53_Y220_E221K]  Fyn (UniProt P06241)               f
 7      MCTVDYLLRLQ [RYR1_Y3921_I3916M]  Fyn (UniProt P06241)               t
 8            GFPVHYTDVSN [DNMT3B_Y815]  Fyn (UniProt P06241)               f
 9        EWKNNCPRLRE [OPA1_Y582_Y582C]  Fyn (UniProt P06241)               f
10      HMRLRYLAAEE [CEP120_Y884_Q879H]  Fyn (UniProt P06241)               t

**Q:** Identify whether the reported phosphorylation enrichment of the following sequence is 0.5 or greater: RLQEGYDHSYY [ESD_Y258]
**A:** t

**Q:** Identify whether the reported phosphorylation enrichment of the following sequence is 0.5 or greater: LRNIDYHRLDG [ATRX_Y2083_Y2084H]
**A:** f

**Q:** Identify whether the reported phosphorylation enrichment of the following sequence is 0.5 or greater: HSGIYYKPESL [L2HGDH_Y103]
**A:** t

**Q:** Identify whether the reported phosphorylation enrichment of the following sequence is 0.5 or greater: PMQMPYDSRWE [PDGFRA_Y582_L580M]
**A:** f

====

- Assayed Target: c-Src SH2
- Procedure Summary: SH2 binding enrichment of the phosphorylated peptide, bacterial display (enrichment ratio); higher = better substrate or ligand; peptides without Tyr show the background
Measurement Name: SH2 binding enrichment
// return just the number, without any unit appended

Some solved cases for reference:
> print(dat)
                             seq.text        measurement.name  obs.value
 1          CRIELYRVVES [IGFBP1_Y181]  SH2 binding enrichment      0.538
 2      HLVLNYGVCFC [JAK2_Y613_V617F]  SH2 binding enrichment      0.757
 3                        AKIDGYIISFR  SH2 binding enrichment      0.576
 4      VNNLVYENING [FRS2_Y306_K303N]  SH2 binding enrichment       2.29
 5             GIADDYDKKKL [EIF1_Y54]  SH2 binding enrichment      0.452
 6           IGRGSYAKVLL [PRKCZ_Y263]  SH2 binding enrichment       5.41
 7           SCRENYSDSEE [LEMD3_Y258]  SH2 binding enrichment       0.78
 8           AEKPKYQINNI [TJP1_Y1602]  SH2 binding enrichment      0.508
 9  KLLLKYSFHDA [RNF213_Y4141_V4146A]  SH2 binding enrichment       0.81
10                        VRSTEYPCAGL  SH2 binding enrichment      0.615

Lab note: SECCKYKIDNP [OSMR_Y689] gave SH2 binding enrichment of 0.472

Lab note: LAAPKYKLNVD [SMARCA2_Y1190_A1188P] gave SH2 binding enrichment of 0.325

Lab note: DVCKNYAEAKD [ALB_Y343] gave SH2 binding enrichment of 1.02

Lab note: TQPSPYAVFLF [RPGRIP1_Y823_R827L_YF] gave SH2 binding enrichment of 0.494

Lab note: KVALVYGQMNQ [ATP5F1B_Y269_E274Q] gave SH2 binding enrichment of 0.434

Lab note: TENAGYFFQVS gave SH2 binding enrichment of 0.333

Lab note: GIVTGYLVLKE [DNMT3B_Y588_A585V] gave SH2 binding enrichment of 0.735
